Target: T1, rat insulin receptor (INSR) on CHOK1 cells (rat, UniProt P15127 27-1383)
T1 construct: whole, on cells; CHOK1 cells over-expressing rat INSR; also called rat INSR ortholog
Test: binding to CHO cells expressing rat INSR; 1st column headed CHO Rat INSR; quantity and unit not printed [cont'd]
Could you please report measured CHO Rat INSR for the items listed next?

Quick one: CHO Rat INSR for XPA.15.247.2.018 Fab (Fab, V domains shown, Monomeric Fab; also called XPA.247.2.018) VH: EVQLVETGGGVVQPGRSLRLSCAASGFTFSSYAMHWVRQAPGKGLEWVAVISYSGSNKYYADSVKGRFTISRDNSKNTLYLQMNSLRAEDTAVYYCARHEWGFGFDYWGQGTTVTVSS VL: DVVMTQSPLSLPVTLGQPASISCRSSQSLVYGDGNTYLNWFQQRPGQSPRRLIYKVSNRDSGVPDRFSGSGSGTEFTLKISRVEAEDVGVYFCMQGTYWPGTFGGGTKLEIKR ?
1.28

# CHO Rat INSR lookup, item RHF.15.05896.020 (Fab, V domains shown, Untagged Fab) VH: EVQLVETGGGVVQPGRSLRLSCAASGFKFSSYAMHWVRQAPGKGLEWVAVISWSGSNKYYADSVKGRFTISRDNSKNTLYLQMNSLRAEDTAVYYCARHEWGFGFDEWGQGTTVTVSS VL: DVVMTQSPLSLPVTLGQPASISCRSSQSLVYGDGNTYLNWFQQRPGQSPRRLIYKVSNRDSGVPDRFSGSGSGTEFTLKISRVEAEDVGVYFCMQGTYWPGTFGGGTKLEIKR
0.661

May I ask what CHO Rat INSR has been recorded for RHF.15.05896.075 (Fab, V domains shown, Untagged Fab) VH: EVQLVETGGGVVQPGRSLRLSCAASGFKFSSYAMHWVRQAPGKGLEWVAVISYSGSNKYYADSVKGRFTISRDNSKNTLYLQMNSLRAEDTAVYYCARHEWGFGYDYWGQGTTVTVSS VL: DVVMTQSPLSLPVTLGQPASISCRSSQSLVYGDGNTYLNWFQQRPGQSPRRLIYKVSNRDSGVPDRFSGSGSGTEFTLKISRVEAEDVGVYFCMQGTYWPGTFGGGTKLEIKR ?
0.621

These measurements were taken from patent US20180251562A1.
